Consider the following substances; for each one, report its kon.
# Tested on: bone-marrow derived mouse dendritic cells (BMDCs)
# Test details: Glyco-PAINT-APP single-molecule glycan binding on live WT BMDC
# Condition: Suppl. Fig 9, glycan SLP, BMDC + CytD, median
sCy5 = sulfo-Cy5
Express the result in evts μm−2 sec−1 but write the number alone.

Item: Ac-Lys(triMan)-TEG-Asp-Glu-Val-Ser-Gly-Leu-Glu-Gln-Leu-Glu-Ser-Ile-Ile-Asn-Phe-Glu-Lys-Leu-Ala-Ala-Ala-Ala-Ala-Lys(sCy5)-NH2 (DEVSGLEQLESIINFEKLAAAAAK; Ac-Lys(triMan)-TEG, sulfo-Cy5, C-amide; printed: Asp-Glu-Val-Ser-Gly-Leu-Glu-Gln-Leu-Glu-Ser-Ile-Ile-Asn-Phe-Glu-Lys-Leu-Ala-Ala-Ala-Ala-Ala-Lys) [1 Tri(4), monovalent trimannosylated OVA SLP with sulfo-Cy5] | kon: 1.5

The substance Ac-Lys(Man)-Lys(Man)-Lys(Man)-Lys(Man)-Lys(Man)-Lys(Man)-TEG-Asp-Glu-Val-Ser-Gly-Leu-Glu-Gln-Leu-Glu-Ser-Ile-Ile-Asn-Phe-Glu-Lys-Leu-Ala-Ala-Ala-Ala-Ala-Lys(sCy5)-NH2 ({Ac-K(Man)-K(Man)-K(Man)-K(Man)-K(Man)-K(Man)-TEG}-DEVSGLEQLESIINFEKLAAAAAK(sCy5)-NH2) [6 Mono(3), hexavalent monomannosylated OVA SLP with sulfo-Cy5] showed kon equal to 2

For record Ac-Lys(Man)-Gly-Lys(Man)-TEG-Asp-Glu-Val-Ser-Gly-Leu-Glu-Gln-Leu-Glu-Ser-Ile-Ile-Asn-Phe-Glu-Lys-Leu-Ala-Ala-Ala-Ala-Ala-Lys(sCy5)-NH2 ({Ac-K(Man)-Gly-K(Man)-TEG}-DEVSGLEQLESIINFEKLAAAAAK(sCy5)-NH2) [2 Mono(2), bivalent monomannosylated OVA SLP with sulfo-Cy5] the listed kon is 3

Query Ac-Lys(Man)-TEG-Asp-Glu-Val-Ser-Gly-Leu-Glu-Gln-Leu-Glu-Ser-Ile-Ile-Asn-Phe-Glu-Lys-Leu-Ala-Ala-Ala-Ala-Ala-Lys(sCy5)-NH2 ({Ac-K(Man)-TEG}-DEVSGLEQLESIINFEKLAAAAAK(sCy5)-NH2) [1 Mono(1), monovalent monomannosylated OVA SLP with sulfo-Cy5] yields kon of 4.3

* * *

Task for the reader: assign each of the following substances its reported kon.
# Tested on: bone-marrow derived mouse dendritic cells (BMDCs)
# Test details: Glyco-PAINT-APP single-molecule glycan binding on live WT BMDC
# Condition: Suppl. Fig 9, glycan SLP, BMDC, median
sCy5 = sulfo-Cy5
# output: bare number, implied unit evts μm−2 sec−1

Lab note: measured kon of Ac-Lys(Man)-Lys(Man)-Lys(Man)-Lys(Man)-Lys(Man)-Lys(Man)-TEG-Asp-Glu-Val-Ser-Gly-Leu-Glu-Gln-Leu-Glu-Ser-Ile-Ile-Asn-Phe-Glu-Lys-Leu-Ala-Ala-Ala-Ala-Ala-Lys(sCy5)-NH2 ({Ac-K(Man)-K(Man)-K(Man)-K(Man)-K(Man)-K(Man)-TEG}-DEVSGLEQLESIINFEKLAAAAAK(sCy5)-NH2) [6 Mono(3), hexavalent monomannosylated OVA SLP with sulfo-Cy5] was 2.1

Briefly, kon measured for Ac-Lys(Man)-Gly-Lys(Man)-TEG-Asp-Glu-Val-Ser-Gly-Leu-Glu-Gln-Leu-Glu-Ser-Ile-Ile-Asn-Phe-Glu-Lys-Leu-Ala-Ala-Ala-Ala-Ala-Lys(sCy5)-NH2 ({Ac-K(Man)-Gly-K(Man)-TEG}-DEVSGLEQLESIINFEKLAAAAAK(sCy5)-NH2) [2 Mono(2), bivalent monomannosylated OVA SLP with sulfo-Cy5] : 2.4

Looking up Ac-Lys(triMan)-Gly-Lys(triMan)-TEG-Asp-Glu-Val-Ser-Gly-Leu-Glu-Gln-Leu-Glu-Ser-Ile-Ile-Asn-Phe-Glu-Lys-Leu-Ala-Ala-Ala-Ala-Ala-Lys(sCy5)-NH2 (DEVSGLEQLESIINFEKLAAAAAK; two Lys(triMan), TEG, sulfo-Cy5, C-amide; printed: Asp-Glu-Val-Ser-Gly-Leu-Glu-Gln-Leu-Glu-Ser-Ile-Ile-Asn-Phe-Glu-Lys-Leu-Ala-Ala-Ala-Ala-Ala-Lys) [2 Tri(5), bivalent trimannosylated OVA SLP with sulfo-Cy5] , I see its kon listed as 1.1

Please fill in: kon reported for Ac-Lys(triMan)-TEG-Asp-Glu-Val-Ser-Gly-Leu-Glu-Gln-Leu-Glu-Ser-Ile-Ile-Asn-Phe-Glu-Lys-Leu-Ala-Ala-Ala-Ala-Ala-Lys(sCy5)-NH2 (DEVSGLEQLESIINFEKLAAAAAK; Ac-Lys(triMan)-TEG, sulfo-Cy5, C-amide; printed: Asp-Glu-Val-Ser-Gly-Leu-Glu-Gln-Leu-Glu-Ser-Ile-Ile-Asn-Phe-Glu-Lys-Leu-Ala-Ala-Ala-Ala-Ala-Lys) [1 Tri(4), monovalent trimannosylated OVA SLP with sulfo-Cy5] = 1
